targetOfAssay: UniProt:P41145
measurementProtocol: Agonist activity at human kappa opioid receptor assessed as inhibition of Galpha-16-induced calcium flux
Assay type: functional
pEC50: −log10 of the molar value.
experimentalEndpoint: pEC50

>>> valuereported("COC(=O)[C@@H]1C[C@H](OC(C)=O)C[C@H]2[C@@]1(C)CC[C@H]1C(=O)O[C@H](c3ccoc3)C[C@]21C")
8.48

====

In what follows, each item is paired with its Ke for Kappa-type opioid receptor (Homo sapiens, UniProt P41145).
experimentalEndpoint: Ke

>>> valuereported("COC(=O)[C@@H]1C[C@H](OC(=O)c2ccccc2)[C@H](O)[C@H]2[C@@]1(C)CC[C@H]1C(=O)O[C@H](c3ccoc3)C[C@]21C")
"1050 nM"
>>> valuereported("COC(=O)[C@@H]1C[C@H](OC(=O)c2ccccc2)C=C2[C@@]1(C)CC[C@H]1C(=O)O[C@H](c3ccoc3)C[C@]21C")
"580 nM"
>>> valuereported("COC(=O)[C@@H]1C[C@H](OC(=O)c2ccccc2)C[C@H]2[C@@]1(C)CC[C@H]1C(=O)O[C@H](c3ccoc3)C[C@]21C")
"580 nM"
>>> valuereported("COC(=O)[C@@H]1C[C@H](OC(C)=O)[C@H](O)[C@H]2[C@@]1(C)CC[C@H]1C(=O)O[C@H](c3ccoc3)C[C@]21C")
"240 nM"
>>> valuereported("COC(=O)[C@@H]1CC(=O)C=C2[C@@]1(C)CC[C@H]1C(=O)O[C@H](c3ccoc3)C[C@]21C")
"460 nM"
>>> valuereported("COC(=O)[C@@H]1C[C@H](OC(C)=O)C=C2[C@@]1(C)CC[C@H]1C(=O)O[C@H](c3ccoc3)C[C@]21C")
"570 nM"

This collection of values is drawn from ChEMBL document CHEMBL1137556.
